These data points were gathered from ChEMBL document CHEMBL1201862.

Tested on: SNB-78
Experiment: NCI tumour cell line growth inhibition, 48 h
Activity calls are given as the source filed them. No stated cut-off is given here; in the data, active = GI50 up to about 1.1 µM and inactive = higher.
Recorded GI50 values for a group of molecules are listed next.
OUTCOME_MEASURE: GI50

1. O=C(CCCN1CCC(C(O)c2ccc(F)cc2)CC1)c1ccc(F)cc1 (stereo not given)    56.9 µM (inactive)
2. Oc1ccc(-c2n[nH]c(S)n2)cc1    > 100 µM (inactive)
3. CC1(C)O/C(=C\c2ccccc2)C(=O)/C(=C/c2ccccc2)O1    38.5 µM (inactive)
4. Clc1ccc(OC2CCO2)cc1Cl (stereo not given)    > 100 µM (inactive)
5. COc1c(CC(C)O)c2c3c(CC(C)O)c(OC)c(=O)c4c(O)cc5c(c6c(cc(O)c(c1=O)c62)OCO5)c43 (stereo not given)    2.15 µM (inactive)
6. CCCCCCCCCCC(C)CCCCCCC(=O)OCC(COP(=O)([O-])OCC[N+](C)(C)C)OC(=O)CCCCCCC(C)CCCCCCCCCC (stereo not given)    > 100 µM (inactive)
7. O=c1oc(-c2ccccc2)cn1-c1ccccc1    > 100 µM (inactive)
8. COC(=O)C1=Cc2cc(OC)c(OC)cc2[C@H](c2ccc(OC)c(OC)c2)C1C(=O)OC (stereo not given in full)    > 100 µM (inactive)
9. Clc1cc(Cl)cc(C2SCc3nc4ccccc4n32)c1 (stereo not given)    6.03 µM (inactive)
10. Cc1ccccc1NC(=O)CSc1nnc(Cc2ccccc2)o1    > 100 µM (inactive)
